# Lookup of reported pEC50 keyed by entry
# STUDY TARGET: 5HT2B receptors (Homo sapiens, UniProt P41595)
# Construct: expressed in transfected cells; host or cells: CHO-K1 cells
# Sequence (P41595 whole entry): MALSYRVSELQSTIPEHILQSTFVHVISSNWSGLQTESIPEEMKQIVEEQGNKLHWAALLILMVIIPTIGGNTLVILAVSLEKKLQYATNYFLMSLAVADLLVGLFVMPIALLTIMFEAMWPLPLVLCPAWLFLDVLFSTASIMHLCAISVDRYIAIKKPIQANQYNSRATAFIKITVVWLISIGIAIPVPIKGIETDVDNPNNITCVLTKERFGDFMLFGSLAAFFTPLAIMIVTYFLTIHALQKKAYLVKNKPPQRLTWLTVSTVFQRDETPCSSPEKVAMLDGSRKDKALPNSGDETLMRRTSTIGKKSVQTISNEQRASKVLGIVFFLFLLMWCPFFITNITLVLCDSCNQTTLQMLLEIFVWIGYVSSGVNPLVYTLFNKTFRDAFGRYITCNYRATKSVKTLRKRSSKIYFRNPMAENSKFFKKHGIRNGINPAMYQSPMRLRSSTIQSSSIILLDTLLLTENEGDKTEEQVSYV
# ASSAY OVERVIEW: Human 5-HT2B functional high throughput screening assay in CHO-K1 cells (calcium flux)
# Format: cell-based
# ASSAY SETUP: 5-HT2B agonist activity; CHO-K1 cells; calcium flux; read-out: EC50
pEC50: −log10 of the molar value.

CN1C[C@H]2CNC(=O)c3cc(-c4ccccc4F)ccc3[C@@H]2C1 (relative stereo) [Example 77] :: < 5.00
COc1ccc(F)c(-c2ccc3c(c2)C(=O)NC[C@@H]2CN(C)C[C@@H]32)c1 (relative stereo) [Example 323] :: < 5.00
C[C@@H](O)c1cccc(-c2ccc3c(c2)C(=O)NC[C@H]2CN(C)C[C@H]32)c1 [Example 294] :: < 5.00
COc1ccc2c(c1)C(=O)NC[C@@H]1CN(Cc3ccccc3)C[C@H]21 (relative stereo) [Example 130] :: < 5.00
CC(C)c1cccc(-c2ccc3c(c2)C(=O)NC[C@@H]2CN(C)C[C@@H]32)c1 (relative stereo) [Example 379] :: < 5.00
Cc1c(Cl)cccc1S(=O)(=O)N1Cc2cccnc2[C@@H]2CNC[C@H]2C1 (relative stereo) [Example 342] :: 6.52
Fc1ccc(-c2cccc3c2NCC[C@@H]2CNC[C@@H]32)cc1 (relative stereo) [Example 401] :: < 5.00
COc1cc(F)ccc1-c1ccc2c(c1)C(=O)NC[C@@H]1CN(C)C[C@@H]21 (relative stereo) [Example 299] :: < 5.00

What value of measured pEC50 is listed for CNC(=O)c1ccc(-c2cccc3c2OCC[C@H]2CNC[C@H]32)cc1 (relative stereo) [Example 371] ?
< 5.00

Can you look up the measured pEC50 of O=C1NC[C@@H]2CN(Cc3ccccc3)C[C@H]2c2cccnc21 (relative stereo) [Example 154] for me?
< 5.00

Need pEC50 of CS(=O)(=O)c1ccccc1-c1ccc2c(c1)C(=O)NC[C@@H]1CNC[C@@H]21 (relative stereo) [Example 231] , thanks.
< 5.00

State the recorded pEC50 for this entry: O=C1NC[C@@H]2CN(Cc3ccccc3)C[C@H]2c2cc3ccccc3cc21 (relative stereo) [Example 256]
< 5.00

What does the data say about its pEC50? Entry: COc1ccccc1S(=O)(=O)N1Cc2cccnc2[C@@H]2CNC[C@H]2C1 (relative stereo) [Example 354]
6.70

====

# STUDY TARGET: 5HT2B receptors (Homo sapiens, UniProt P41595)
# Construct: expressed in transfected cells; host or cells: CHO-K1 cells
# ASSAY OVERVIEW: Human 5-HT2B functional high throughput screening assay in CHO-K1 cells (calcium flux)
# Format: cell-based
# ASSAY SETUP: EC50, 5-HT2B agonist activity; CHO-K1 cells; calcium flux
MEASURED PARAMETER: pEC50
Value format note: pEC50 is -log10 of concentration (mol/L); just state the number.

Form: Entry = O=C1NC[C@H]2CN(Cc3ccccc3)C[C@@H]2c2ccc(F)cc21 [Example 61] | System = 5HT2B receptors (Homo sapiens, UniProt P41595) | pEC50 = ____
6.70

What measured pEC50 is associated with Nc1ccc2c(c1)C(=O)NC[C@@H]1CNC[C@@H]21 (relative stereo) [Example 144] on 5HT2B receptors (Homo sapiens, UniProt P41595)?
6.00

Form: Entry = Fc1ccc2c(c1)OCC[C@H]1CN(Cc3ccccc3)C[C@H]21 (relative stereo) [Example 107] | System = 5HT2B receptors (Homo sapiens, UniProt P41595) | pEC50 = ____
6.15

Please tell me: pEC50 of CN1C[C@H]2CNC(=O)c3cc(F)ccc3[C@@H]2C1 (relative stereo) [Example 91] , system 5HT2B receptors (Homo sapiens, UniProt P41595)?
5.52

Param readout= pEC50; system= 5HT2B receptors (Homo sapiens, UniProt P41595); entry= Fc1ccc2c(c1)OCC[C@H]1CNC[C@H]21 (relative stereo) [Example 109] ; returns value.
6.52

Missing value: pEC50, 5HT2B receptors (Homo sapiens, UniProt P41595), entry Cc1noc(C)c1-c1ccc2c(c1)C(=O)NC[C@@H]1CNC[C@@H]21 (single isomer, unassigned) [Example 245] . Fill in?
5.70

Recall the recorded pEC50 for Clc1cc(Br)c2c(c1)[C@H]1CNC[C@@H]1CCO2 (relative stereo) [Example 394] with 5HT2B receptors (Homo sapiens, UniProt P41595) and state it.
7.00

Request: pEC50, test system 5HT2B receptors (Homo sapiens, UniProt P41595), entry COc1ccc2c(c1)[C@H]1CNC[C@@H]1CC=C2 (relative stereo) [Example 266]
6.40
